Values were extracted from PubChem BioAssay (NCI).

System: OVCAR-5 ovarian
EXPERIMENT NOTES: NCI-60 one-dose screen, 48 h (100 = growth as untreated, 0 = no growth, -100 = all killed)
EXPERIMENTAL CONDITIONS: 10 µM unless noted
Compounds without any hit were thinned out: in the full panel of roughly 83,000, 20% have a hit. Active and inactive are the calls of the source. How the source made its calls: active means growth percent below 10; inactive means the rest.
Here, each record is paired with measured growth data.

*Q* # growth lookup, item CCc1ccc(C(=O)/C=C/C23c4ccccc4C(c4ccccc42)C2C(=O)NC(=O)C23)cc1 (centres undefined)
*A* 15.7% (inactive)

*Q* # growth lookup, item "O=C(OCc1ccc2c(Cl)cc(Cl)c(O)c2n1)n1cncn1"
*A* 81.8% (inactive)

*Q* # growth lookup, item "CCN(CC)C(=S)SC(SC(=S)N(CC)CC)C(=O)c1nnn(-c2ccc([N+](=O)[O-])cc2)c1C"
*A* 106% (inactive)

*Q* # growth lookup, item "COC(=O)/C(CCC=C(C)C)=C1\[C@@H](OC(C)=O)C[C@@]2(C)[C@H]1C[C@@H](O)[C@H]1[C@@]3(C)CC[C@H](NCCN)[C@@H](C)[C@@H]3CC[C@@]12C"
*A* 104% (inactive)

* * *

System: TK-10 renal
EXPERIMENT NOTES: NCI-60 one-dose screen, 48 h
EXPERIMENTAL CONDITIONS: 10 µM unless noted
About 83,000 compounds went through this panel and 20% of them were active in at least one assay; those are over-represented in the sample as a whole. Active and inactive are the calls of the source. The calls were made as follows: active = growth percent below 10; inactive = the rest.
Mark one answer only. Choices: 1 for active, 0 for inactive

The examples below pair each entry with its known result.
{"columns": ["COMPOUND", "ANSWER LABEL"],
 "data": [
  ["COc1ccc(CC(C#N)c2cc3ccccc3[nH]2)cc1 (stereo not drawn)", 0],
  ["COc1ccc(-c2ccc3cnc4sc(-c5ccc(OC)cc5)nc4c3n2)cc1", 0],
  ["Cn1cccc1C(=O)C1C(c2cccc([N+](=O)[O-])c2)C2C3CCCCC3CN2C12C(=O)Nc1ccc(Cl)cc12 (stereo not drawn)", 0],
  ["C=C1C(=O)O[C@H]2[C@H]1CC/C(COC(=O)NCc1cc[nH]c1)=C\\CC[C@@]1(C)O[C@@H]21", 0],
  ["Cc1nc2c(=O)[nH]c(SCC(=O)Nc3cccc(F)c3)nc2[nH]c1=O", 0]
]}

*Q* What did the test return for "COc1ccc(/C(C)=C(/c2ccc(OCCCN(C)C)cc2)c2ccc(OC(=O)Cc3ccccc3)cc2)cc1" ?
*A* 0

*Q* What did the test return for "O=C1c2cccnc2C(=O)c2c1c(C(=O)NCCCN1CCCCC1)c1ccccn21" ?
*A* 1

*Q* What did the test return for "CNC(=O)c1cc(Oc2ccc3c(c2)sc2nc(-c4cc(OC)c(OC)c(OC)c4)cn23)ccn1" ?
*A* 0

*Q* What did the test return for "CC(C)N1CCN(Cc2ccc3c(NNC(=O)c4ccccc4)nc4cc(F)ccc4n23)CC1" ?
*A* 0

*Q* What did the test return for "O=C(c1ccc(-c2ccccc2)cc1)c1ccc([N+](=O)[O-])cc1" ?
*A* 0

*Q* What did the test return for "C=C1C(=O)O[C@H]2[C@H]1CC/C(COC(=O)N[C@H]1C[C@H](O[C@H]3C[C@](O)(C(=O)CO)Cc4c(O)c5c(c(O)c43)C(=O)c3c(OC)cccc3C5=O)O[C@@H](C)[C@H]1O)=C\CC[C@@]1(C)O[C@@H]21" ?
*A* 0

*Q* What did the test return for "COc1cc(-c2nc(SCC(C)C)nc(Nc3cccc4ccccc34)c2C#N)cc(OC)c1OC" ?
*A* 0

*Q* What did the test return for "Cc1ccc(-c2nn(-c3ccccc3)cc2C=C2C(=O)ON=C2C(C)C)cc1" ?
*A* 0

*Q* What did the test return for "COc1ccc2cc(C(=O)c3coc4ccc(O)cc34)ccc2c1" ?
*A* 0

* * *

System: NCI-H322M lung
EXPERIMENT NOTES: NCI-60 one-dose screen, 48 h (100 = growth as untreated, 0 = no growth, -100 = all killed)
EXPERIMENTAL CONDITIONS: 10 µM unless noted
The panel holds about 83,000 compounds, 20% with a hit somewhere; the sample as a whole holds those more often.
Okay, here is how we bin by growth: low interval = under 60%, middle interval = from 60% up to 90%, high interval = 90% and over

{"columns": ["MOLECULE", "ANSWER LABEL"],
 "data": [
  ["Cc1ccc(S(=O)(=O)N2CCCC2CO)cc1 (stereo not given)", "high interval"],
  ["C=C(C)[C@@H]1CC[C@]2(C(=O)NCCNCCN)CC[C@]3(C)[C@H](CC[C@@H]4[C@@]5(C)C/C(=C/c6ccncc6)C(=O)C(C)(C)[C@@H]5CC[C@]43C)[C@@H]12", "high interval"],
  ["C#Cc1ccc(NC(=O)c2ccc(/C=C/C(=O)c3nccn3C)cc2)cc1", "low interval"],
  ["CCCCCCCCn1ccc2cc(NC(=O)Cn3cc(CN4CCCCC4)nn3)ccc21", "low interval"],
  ["CCOC(=O)c1c2c(n3ccc(C)cc13)C(=O)c1ccccc1C2=O", "middle interval"],
  ["Cc1ccc2c(n1)C(=O)c1[nH]c3ccccc3c1C2=O", "low interval"]
]}

*Q* Categorize the following entry: "Oc1c(Cl)cc(Cl)c2ccc(Cn3cc(-c4ccc(C(F)(F)F)cc4)nn3)nc12"
*A* high interval

*Q* Categorize the following entry: "O=C1C(Cl)=C(Oc2ccccc2)C(=O)c2ccccc21"
*A* middle interval

* * *

System: LOX IMVI melanoma
EXPERIMENT NOTES: NCI-60 one-dose screen, 48 h (100 = growth as untreated, 0 = no growth, -100 = all killed)
EXPERIMENTAL CONDITIONS: 10 µM unless noted
Compounds without any hit were thinned out: in the full panel of roughly 83,000, 20% have a hit.
Here, each record is paired with measured growth data.
// note: answer is a bare numeric in %

*Q* # growth lookup, item "Brc1c2c(c(Br)c3ccccc13)CCCC2"
*A* 100

* * *

Test system: HCC-2998 colon
EXPERIMENT NOTES: NCI-60 one-dose screen, 48 h (100 = growth as untreated, 0 = no growth, -100 = all killed)
EXPERIMENTAL CONDITIONS: 10 µM unless noted
The panel holds about 83,000 compounds, 20% with a hit somewhere; the sample as a whole holds those more often. The source made the active and inactive calls. How the source made its calls: active means growth percent below 10; inactive means the rest.
Here, each record is paired with measured growth data.

In the examples that follow, each entry is paired with its recorded growth.
{"columns": ["COMPOUND", "MEASURED ENDPOINT", "REPORTED"],
 "data": [
  ["CN1CCN(Cc2ccc(NC(=O)c3cncc(C#Cc4cnc(N)c5ccccc45)c3)cc2C(F)(F)F)CC1", "growth", "-92.3% (active)"],
  ["Cn1cc(-c2nonc2-c2c[nH]c3ccc(Br)cc23)c2cc(Br)ccc21", "growth", "39.8% (inactive)"],
  ["CC(C)N1CCN(Cc2ccc3c(NNC(=O)c4ccccc4)nc4cc(F)ccc4n23)CC1", "growth", "25% (inactive)"],
  ["O=C(CN1C(=O)CCC1=O)Nc1ncc(Cc2ccc(F)cc2)s1", "growth", "92.5% (inactive)"],
  ["N#Cc1cccc(F)c1", "growth", "118% (inactive)"],
  ["C=CCn1c(SCC(=O)Nc2ccc(C(=O)/C=C/c3ccc(Cl)cc3)cc2)nnc1-c1cc(-c2ccc(S(N)(=O)=O)cc2)nc2ccccc12", "growth", "101% (inactive)"],
  ["CC1(C)CC2=C3C=C[C@@H]4[C@@]5(C)CCC(=O)C(C)(C)[C@@H]5CC[C@@]4(C)[C@]3(C)CC[C@@]2(C(=O)O)CC1=O", "growth", "84.3% (inactive)"],
  ["N#CC1=C(c2ccc(Cl)cc2)Nc2c(c(-c3ccc(Cl)cc3)nn2-c2ccccc2)C12C(=O)Nc1ccc(Cl)cc12 (configuration not stated)", "growth", "69.1% (inactive)"]
]}

*Q* Any idea what growth came out for Cc1cnc(C(=O)NNc2nc3sc4c(c3c(=O)n2C)C(C)CCC4)cn1 (configuration not stated) on HCC-2998 colon?
*A* 29.5% (inactive)

*Q* Any idea what growth came out for "OB(O)c1cccc(-c2nc3ccc4[nH]ncc4c3c3c2CCCC3)c1" on HCC-2998 colon?
*A* 77.3% (inactive)

*Q* Any idea what growth came out for "Cc1ccc(-c2nn(-c3ccccc3)cc2C=C2C(=O)ON=C2C(C)C)cc1" on HCC-2998 colon?
*A* 68.7% (inactive)

*Q* Any idea what growth came out for "O=S(=O)(Nc1ccc(Cl)cc1)c1ccc(-c2cnc(C3CC3)o2)cc1" on HCC-2998 colon?
*A* 40.3% (inactive)

*Q* Any idea what growth came out for "N#C/C(=C/c1ccc([N+](=O)[O-])cc1)n1nnc2cc(F)c(F)cc21" on HCC-2998 colon?
*A* 70.5% (inactive)

*Q* Any idea what growth came out for "C#CCn1cnc2c(Nc3cccc(NC(=O)C=C)c3)ncnc21" on HCC-2998 colon?
*A* 105% (inactive)
